Record form. Attribute: POAAN weed control rating. Fill in for each entry.
- Tested on: Poa annua
- experimental details: Pre-emergence test, weed control
- Type: in vivo
- study conditions: 0.060 kg/ha, 3 weeks after treatment, rating 0-100 (100=death), Table 3
One number for each entry.

>>> test_result("FC(F)(F)c1ccc(-c2nccc(Oc3ccnc(Cl)c3)n2)cc1")
100

Can you give me POAAN weed control rating for all of these, one by one?
1. COc1cnc(-c2ccc(C(F)(F)F)cc2)nc1Oc1ccnc(Cl)c1
2. Cc1cc(Oc2ccnc(Cl)c2)nc(-c2ccc(C(F)(F)F)cc2)n1
3. Cc1cnc(-c2ccc(C(F)(F)F)cc2)nc1Oc1ccnc(Cl)c1
4. Cc1nc(-c2ccc(C(F)(F)F)cc2)nc(Oc2ccnc(Cl)c2)c1C
5. CSc1cc(Oc2ccnc(Cl)c2)nc(-c2ccc(C(F)(F)F)cc2)n1

100
100
100
100
95

###

- System: Hordeum vulgare variety “Mammut”
- experimental details: Pre-emergence test, selectivity
- Assay type: in vivo
- study conditions: 0.240 kg/ha, 3 weeks after treatment, rating 0-100 (100=death), Table 2
measured quantity: HORVWM rating (Selectivity)
One number for each entry.

>>> test_result("CCc1cc(Oc2cccc(C(F)(F)F)c2)nc(-c2ccc(C(F)(F)F)cc2)n1")
55
>>> test_result("Cc1nc(-c2ccc(C(F)(F)F)cc2)nc(Oc2cccc(C(F)(F)F)c2)c1C")
25
>>> test_result("Cc1cnc(-c2ccc(C(F)(F)F)cc2)nc1Oc1cccc(C(F)(F)F)c1")
65

For the next question, use this compound.
Provide value of HORVWM rating (Selectivity) for this record tested with Hordeum vulgare variety “Mammut”: FC(F)(F)c1ccc(-c2nccc(Oc3cccc(C(F)(F)F)c3)n2)cc1
45

###

- System: Veronica persica
- experimental details: Pre-emergence test, weed control
- Assay type: in vivo
- study conditions: 0.120 kg/ha, 3 weeks after treatment, rating 0-100 (100=death), Table 3
measured quantity: VERPE weed control rating

In the examples that follow, each entry is paired with its recorded VERPE weed control rating.
>>> test_result("Cc1cnc(-c2ccc(C(F)(F)F)cc2)nc1Oc1ccnc(Cl)c1")
100
>>> test_result("COc1cnc(-c2ccc(C(F)(F)F)cc2)nc1Oc1ccnc(Cl)c1")
100
>>> test_result("Cc1cc(Oc2ccnc(Cl)c2)nc(-c2ccc(C(F)(F)F)cc2)n1")
100
>>> test_result("FC(F)(F)c1ccc(-c2nccc(Oc3ccnc(Cl)c3)n2)cc1")
100
>>> test_result("Cc1nc(-c2ccc(C(F)(F)F)cc2)nc(Oc2ccnc(Cl)c2)c1C")
95

For the next question, use this compound.
Looking for the measured VERPE weed control rating of CSc1cc(Oc2ccnc(Cl)c2)nc(-c2ccc(C(F)(F)F)cc2)n1 , can you help?
99

###

Record form. Attribute: TRZAWK rating (Selectivity). Fill in for each entry.
- Tested on: Triticum aestivum variety “Kanzler”
- experimental details: Pre-emergence test, selectivity
- Assay type: in vivo
- study conditions: 0.120 kg/ha, 3 weeks after treatment, rating 0-100 (100=death), Table 4
Numbers only.

In the examples that follow, each entry is paired with its recorded TRZAWK rating (Selectivity).
>>> test_result("Cc1cc(Oc2ccnc(Cl)c2)nc(-c2ccc(C(F)(F)F)cc2)n1")
12
>>> test_result("Cc1nc(-c2ccc(C(F)(F)F)cc2)nc(Oc2ccnc(Cl)c2)c1C")
1
>>> test_result("CSc1cc(Oc2ccnc(Cl)c2)nc(-c2ccc(C(F)(F)F)cc2)n1")
5
>>> test_result("FC(F)(F)c1ccc(-c2nccc(Oc3ccnc(Cl)c3)n2)cc1")
1

Can you give me TRZAWK rating (Selectivity) for all of these, one by one?
1. COc1cnc(-c2ccc(C(F)(F)F)cc2)nc1Oc1ccnc(Cl)c1
2. Cc1cnc(-c2ccc(C(F)(F)F)cc2)nc1Oc1ccnc(Cl)c1

1. 12
2. 22

###

Record form. Attribute: TRZAWM rating (Selectivity). Fill in for each entry.
- System: Triticum aestivum variety “Monopol”
- experimental details: Pre-emergence test, selectivity
- Assay type: in vivo
- study conditions: 0.120 kg/ha, 3 weeks after treatment, rating 0-100 (100=death), Table 2

>>> test_result("FC(F)(F)c1ccc(-c2nccc(Oc3cccc(C(F)(F)F)c3)n2)cc1")
5
>>> test_result("CCc1cc(Oc2cccc(C(F)(F)F)c2)nc(-c2ccc(C(F)(F)F)cc2)n1")
35
>>> test_result("Cc1nc(-c2ccc(C(F)(F)F)cc2)nc(Oc2cccc(C(F)(F)F)c2)c1C")
2

Provide value of TRZAWM rating (Selectivity) for this record tested with Triticum aestivum variety “Monopol”: Cc1cnc(-c2ccc(C(F)(F)F)cc2)nc1Oc1cccc(C(F)(F)F)c1
30

###

- Test system: Apera spica-venti
- experimental details: Pre-emergence test, weed control
- Type: in vivo
- study conditions: 0.015 kg/ha, 3 weeks after treatment, rating 0-100 (100=death), Table 1
- Method: The pre-emergence tests involve spraying a liquid formulation of the compound onto the soil in which the seeds of the plant species mentioned above has recently been sown. The soil used in the tests is a prepared horticultural loam. […] In these tests untreated sown soil is used as control. The herbicidal effects of the test compounds are assessed visually three weeks after spraying the soil and are recorded an a 0 to 100 scale. […]
Record form. Attribute: APESV weed control rating. Fill in for each entry.
One number for each entry.

In the examples that follow, each entry is paired with its recorded APESV weed control rating.
>>> test_result("FC(F)(F)c1ccc(-c2nccc(Oc3cccc(C(F)(F)F)c3)n2)cc1")
100
>>> test_result("CCc1cc(Oc2cccc(C(F)(F)F)c2)nc(-c2ccc(C(F)(F)F)cc2)n1")
100
>>> test_result("Cc1cnc(-c2ccc(C(F)(F)F)cc2)nc1Oc1cccc(C(F)(F)F)c1")
100

Looking for the measured APESV weed control rating of Cc1nc(-c2ccc(C(F)(F)F)cc2)nc(Oc2cccc(C(F)(F)F)c2)c1C , can you help?
80

###

- Test system: HORVW
- experimental details: Pre-emergence test, selectivity
- Type: in vivo
- study conditions: 0.120 kg/ha, 3 weeks after treatment, rating 0-100 (100=death), Table 2
Record form. Attribute: HORVW rating (Selectivity). Fill in for each entry.

Can you give me HORVW rating (Selectivity) for all of these, one by one?
1. CCc1cc(Oc2cccc(C(F)(F)F)c2)nc(-c2ccc(C(F)(F)F)cc2)n1
2. Cc1nc(-c2ccc(C(F)(F)F)cc2)nc(Oc2cccc(C(F)(F)F)c2)c1C
3. Cc1cnc(-c2ccc(C(F)(F)F)cc2)nc1Oc1cccc(C(F)(F)F)c1
4. FC(F)(F)c1ccc(-c2nccc(Oc3cccc(C(F)(F)F)c3)n2)cc1

1: 60; 2: 20; 3: 60; 4: 50

###

- Test system: Triticum aestivum variety “Monopol”
- experimental details: Pre-emergence test, selectivity
- Assay type: in vivo
- study conditions: 0.240 kg/ha, 3 weeks after treatment, rating 0-100 (100=death), Table 2
measured quantity: TRZAWM rating (Selectivity)
One number for each entry.

In the examples that follow, each entry is paired with its recorded TRZAWM rating (Selectivity).
>>> test_result("Cc1nc(-c2ccc(C(F)(F)F)cc2)nc(Oc2cccc(C(F)(F)F)c2)c1C")
5
>>> test_result("FC(F)(F)c1ccc(-c2nccc(Oc3cccc(C(F)(F)F)c3)n2)cc1")
15
>>> test_result("CCc1cc(Oc2cccc(C(F)(F)F)c2)nc(-c2ccc(C(F)(F)F)cc2)n1")
45

Looking for the measured TRZAWM rating (Selectivity) of Cc1cnc(-c2ccc(C(F)(F)F)cc2)nc1Oc1cccc(C(F)(F)F)c1 , can you help?
45

###

Record form. Attribute: TRZAWK rating (Selectivity). Fill in for each entry.
- Test system: Triticum aestivum variety “Kanzler”
- experimental details: Pre-emergence test, selectivity
- Format: in vivo
- study conditions: 0.120 kg/ha, 3 weeks after treatment, rating 0-100 (100=death), Table 2

>>> test_result("Cc1nc(-c2ccc(C(F)(F)F)cc2)nc(Oc2cccc(C(F)(F)F)c2)c1C")
1

Can you give me TRZAWK rating (Selectivity) for all of these, one by one?
1. CCc1cc(Oc2cccc(C(F)(F)F)c2)nc(-c2ccc(C(F)(F)F)cc2)n1
2. Cc1cnc(-c2ccc(C(F)(F)F)cc2)nc1Oc1cccc(C(F)(F)F)c1
3. FC(F)(F)c1ccc(-c2nccc(Oc3cccc(C(F)(F)F)c3)n2)cc1

[25, 25, 3]

###

Record form. Attribute: TRZAWM rating (Selectivity). Fill in for each entry.
- Tested on: Triticum aestivum variety “Monopol”
- experimental details: Pre-emergence test, selectivity
- Assay type: in vivo
- study conditions: 0.060 kg/ha, 3 weeks after treatment, rating 0-100 (100=death), Table 2
Give bare numbers.

>>> test_result("Cc1nc(-c2ccc(C(F)(F)F)cc2)nc(Oc2cccc(C(F)(F)F)c2)c1C [REF-2]")
1
>>> test_result("CCc1cc(Oc2cccc(C(F)(F)F)c2)nc(-c2ccc(C(F)(F)F)cc2)n1 [REF-3]")
10
>>> test_result("Cc1cnc(-c2ccc(C(F)(F)F)cc2)nc1Oc1cccc(C(F)(F)F)c1 [REF-1]")
25

For the next question, use this compound.
Provide value of TRZAWM rating (Selectivity) for this record tested with Triticum aestivum variety “Monopol”: FC(F)(F)c1ccc(-c2nccc(Oc3cccc(C(F)(F)F)c3)n2)cc1 [TTP]
1
